EXPERIMENTAL DETAILS: Aqueous solubility of the compound in 0.1 M sodium phosphate buffer at pH 7.4
Assay type: physicochemical
MEASURE NAME: solubility

A selection of reference data follows.
>>> reported("S=C(NCCc1ccccc1)NCCC12CC3CC(CC(C3)C1)C2")
"60 to 80 µM"
>>> reported("S=C(Nc1ccc(C23CC4CC(CC(C4)C2)C3)cc1)Nc1ccc(C23CC4CC(CC(C4)C2)C3)cc1")
"100 to 125 µM"
>>> reported("O=C(NCCCCNC(=O)NCC12CC3CC(CC(C3)C1)C2)NCC12CC3CC(CC(C3)C1)C2")
"50 to 75 µM"
>>> reported("CC12CC3CC(C)(C1)CC(NC(=S)NC14CC5CC(CC(C5)C1)C4)(C3)C2")
"30 to 40 µM"

Suppose we examine the compound "CC12CC3CC(C)(C1)CC(NC(=S)Nc1cccc(F)c1)(C3)C2" ; what solubility value has been reported? 50 to 60 µM

Suppose we examine the compound S=C(NCc1ccccc1)NC1C2CC3CC(C2)CC1C3 (stereo unspecified) ; what solubility value has been reported? 65 to 75 µM

###

SYSTEM TESTED: Bifunctional epoxide hydrolase 2 (Mus musculus)
Sequence (P34914 whole entry): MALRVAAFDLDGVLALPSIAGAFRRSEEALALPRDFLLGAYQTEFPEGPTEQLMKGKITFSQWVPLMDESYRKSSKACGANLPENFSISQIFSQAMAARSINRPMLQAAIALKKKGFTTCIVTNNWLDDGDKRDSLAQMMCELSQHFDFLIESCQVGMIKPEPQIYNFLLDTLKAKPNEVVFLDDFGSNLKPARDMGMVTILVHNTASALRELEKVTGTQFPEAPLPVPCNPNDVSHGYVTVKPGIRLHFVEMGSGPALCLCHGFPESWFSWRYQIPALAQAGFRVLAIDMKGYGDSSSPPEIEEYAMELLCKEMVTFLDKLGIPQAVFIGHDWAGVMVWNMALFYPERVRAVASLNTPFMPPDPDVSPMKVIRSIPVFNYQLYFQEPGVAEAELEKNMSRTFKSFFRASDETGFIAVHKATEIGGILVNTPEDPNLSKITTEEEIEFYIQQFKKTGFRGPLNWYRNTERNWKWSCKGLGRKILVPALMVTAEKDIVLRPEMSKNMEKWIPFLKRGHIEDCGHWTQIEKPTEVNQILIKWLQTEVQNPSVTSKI
EXPERIMENTAL DETAILS: Inhibition of recombinant mouse sEH expressed in baculovirus expression system using CMNPC as substrate preincubated for 5 mins followed by substrate addition measured for 10 mins by fluorescent based assay
MEASURE NAME: IC50 (nM)
// return numeric value only (unit: nM, not printed)

A selection of reference data follows.
>>> reported("S=C(NCCCNC(=S)NC12CC3CC(CC(C3)C1)C2)NC12CC3CC(CC(C3)C1)C2")
74.9
>>> reported("S=C(NCCCCCNC(=S)NC12CC3CC(CC(C3)C1)C2)NC12CC3CC(CC(C3)C1)C2")
36.2

Suppose we examine the compound S=C(Nc1ccccc1)NC1C2CC3CC(C2)CC1C3 (stereo not given) ; what IC50 value has been reported? 408

Suppose we examine the compound S=C(NCCc1ccccc1)NC1C2CC3CC(C2)CC1C3 (stereo not given) ; what IC50 value has been reported? 108

Suppose we examine the compound "S=C(NCCCCNC(=S)NC12CC3CC(CC(C3)C1)C2)NC12CC3CC(CC(C3)C1)C2" ; what IC50 value has been reported? 130

Suppose we examine the compound "S=C(NCCCCCCCCCCNC(=S)NC12CC3CC(CC(C3)C1)C2)NC12CC3CC(CC(C3)C1)C2" ; what IC50 value has been reported? 59.5

Suppose we examine the compound "S=C(NCCCCCCCCNC(=S)NC12CC3CC(CC(C3)C1)C2)NC12CC3CC(CC(C3)C1)C2" ; what IC50 value has been reported? 1170

Suppose we examine the compound "S=C(NCCCCCCCNC(=S)NC12CC3CC(CC(C3)C1)C2)NC12CC3CC(CC(C3)C1)C2" ; what IC50 value has been reported? 47.3

Suppose we examine the compound "S=C(NCCCCCCNC(=S)NC12CC3CC(CC(C3)C1)C2)NC12CC3CC(CC(C3)C1)C2" ; what IC50 value has been reported? 50.6

Suppose we examine the compound S=C(NCc1ccccc1)NC1C2CC3CC(C2)CC1C3 (stereo not given) ; what IC50 value has been reported? 61

###

EXPERIMENTAL DETAILS: Aqueous solubility of the compound in 0.1 M sodium phosphate buffer at pH 7.4
Type: physicochemical
MEASURE NAME: solubility

>>> reported("CC12CC3CC(C)(C1)CC(NC(=S)NCc1ccccc1)(C3)C2")
"10 to 15 µM"
>>> reported("S=C(NCCC12CC3CC(CC(C3)C1)C2)Nc1ccc(C23CC4CC(CC(C4)C2)C3)cc1")
"100 to 120 µM"
>>> reported("S=C(Nc1ccc(C23CC4CC(CC(C4)C2)C3)cc1)NC1C2CC3CC(C2)CC1C3 (stereo not given)")
"175 to 200 µM"
>>> reported("S=C(Nc1ccccc1)NC1C2CC3CC(C2)CC1C3 (stereo not given)")
"70 to 80 µM"
>>> reported("O=C(NC12CC3CC(CC(C3)C1)C2)NC12CC3CC(CC(C3)C1)C2")
"5 to 10 µM"
>>> reported("O=C(NCCCCCCCCNC(=O)NC1C2CC3CC(C2)CC1C3)NC1C2CC3CC(C2)CC1C3 (stereo not given)")
"5 to 10 µM"
>>> reported("S=C(NCC12CC3CC(CC(C3)C1)C2)NC12CC3CC(CC(C3)C1)C2")
"70 to 80 µM"
>>> reported("CC12CC3CC(C)(C1)CC(NC(=S)Nc1ccc(F)cc1)(C3)C2")
"175 to 200 µM"

Suppose we examine the molecule CC(NC(=S)NCCCCNC(=S)NC(C)C12CC3CC(CC(C3)C1)C2)C12CC3CC(CC(C3)C1)C2 (stereo not given) ; what solubility value has been reported? 120 to 130 µM

Suppose we examine the molecule S=C(NCC12CC3CC(CC(C3)C1)C2)NC1C2CC3CC(C2)CC1C3 (stereo not given) ; what solubility value has been reported? 30 to 40 µM

Suppose we examine the molecule "S=C(Nc1ccc(C23CC4CC(CC(C4)C2)C3)cc1)NC12CC3CC(CC(C3)C1)C2" ; what solubility value has been reported? 30 to 40 µM

Suppose we examine the molecule CC(NC(=S)Nc1cccc(F)c1)C12CC3CC(CC(C3)C1)C2 (stereo not given) ; what solubility value has been reported? 35 to 45 µM

Suppose we examine the molecule S=C(NCCCCCCCCNC(=S)NC1C2CC3CC(C2)CC1C3)NC1C2CC3CC(C2)CC1C3 (stereo not given) ; what solubility value has been reported? 25 to 35 µM

###

EXPERIMENTAL DETAILS: Aqueous solubility of the compound in 0.1 M sodium phosphate buffer at pH 7.4
Type: physicochemical
MEASURE NAME: solubility

Suppose we examine the compound "S=C(NCCCCCCCCNC(=S)NC12CC3CC(CC(C3)C1)C2)NC12CC3CC(CC(C3)C1)C2" ; what solubility value has been reported? 40 to 50 µM

Suppose we examine the compound "Fc1cccc(NC(=S)NCC23CC4CC(CC(C4)C2)C3)c1" ; what solubility value has been reported? 30 to 40 µM

Suppose we examine the compound "S=C(NCCc1ccccc1)NCC12CC3CC(CC(C3)C1)C2" ; what solubility value has been reported? 25 to 30 µM

Suppose we examine the compound CC(N=C(S)NCc1ccccc1)C12CC3CC(CC(C3)C1)C2 (stereo not given) ; what solubility value has been reported? 40 to 50 µM

Suppose we examine the compound CC(NC(=O)NCCCCCCCCNC(=O)NC(C)C12CC3CC(CC(C3)C1)C2)C12CC3CC(CC(C3)C1)C2 (stereo not given) ; what solubility value has been reported? 10 to 25 µM

###

SYSTEM TESTED: Bifunctional epoxide hydrolase 2 (Homo sapiens, UniProt P34913)
Sequence (P34913 whole entry): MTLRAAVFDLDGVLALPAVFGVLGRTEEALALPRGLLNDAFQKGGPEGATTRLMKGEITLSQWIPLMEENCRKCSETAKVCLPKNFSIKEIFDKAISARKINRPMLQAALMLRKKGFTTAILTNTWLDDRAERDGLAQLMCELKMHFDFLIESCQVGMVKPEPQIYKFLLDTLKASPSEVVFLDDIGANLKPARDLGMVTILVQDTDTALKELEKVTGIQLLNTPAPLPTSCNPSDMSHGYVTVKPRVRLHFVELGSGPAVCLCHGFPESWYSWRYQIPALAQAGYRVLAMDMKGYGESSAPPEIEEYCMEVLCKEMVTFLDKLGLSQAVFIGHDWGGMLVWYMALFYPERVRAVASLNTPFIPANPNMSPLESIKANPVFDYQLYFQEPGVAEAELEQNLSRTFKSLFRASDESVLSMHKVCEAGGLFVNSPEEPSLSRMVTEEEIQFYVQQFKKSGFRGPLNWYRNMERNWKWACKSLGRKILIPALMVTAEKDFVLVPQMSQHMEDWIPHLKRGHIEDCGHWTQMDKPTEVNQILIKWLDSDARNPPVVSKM
EXPERIMENTAL DETAILS: Inhibition of recombinant human sEH expressed in baculovirus expression system using CMNPC as substrate preincubated for 5 mins followed by substrate addition measured for 10 mins by fluorescent based assay
# maps each entry to its IC50
// return numeric value only (unit: nM, not printed)

A selection of reference data follows.
>>> reported("Fc1cccc(NC(=S)NCCC23CC4CC(CC(C4)C2)C3)c1")
160
>>> reported("CC(N=C(S)NCc1ccccc1)C12CC3CC(CC(C3)C1)C2 (configuration not stated)")
234
>>> reported("CCC(CC12CC3CC(CC(C3)C1)C2)NC(=S)Nc1ccccc1 (configuration not stated)")
50200

Suppose we examine the compound S=C(NCCC12CC3CC(CC(C3)C1)C2)NC1C2CC3CC(C2)CC1C3 (configuration not stated) ; what IC50 value has been reported? 259

Suppose we examine the compound "CC12CC3CC(C)(C1)CC(NC(=S)NCCc1ccccc1)(C3)C2" ; what IC50 value has been reported? 216

Suppose we examine the compound CC(NC(=S)NCCc1ccccc1)C12CC3CC(CC(C3)C1)C2 (configuration not stated) ; what IC50 value has been reported? 345

Suppose we examine the compound "S=C(Nc1ccc(C23CC4CC(CC(C4)C2)C3)cc1)NC12CC3CC(CC(C3)C1)C2" ; what IC50 value has been reported? 1250

Suppose we examine the compound "CC12CC3CC(C)(C1)CC(NC(=S)Nc1ccc(C45CC6CC(CC(C6)C4)C5)cc1)(C3)C2" ; what IC50 value has been reported? 2480

Suppose we examine the compound "CC12CC3CC(C)(C1)CC(NC(=S)Nc1ccccc1)(C3)C2" ; what IC50 value has been reported? 1220

Suppose we examine the compound "S=C(NCCCCNC(=S)NC12CC3CC(CC(C3)C1)C2)NC12CC3CC(CC(C3)C1)C2" ; what IC50 value has been reported? 90.8

Suppose we examine the compound "CC12CC3CC(C)(C1)CC(NC(=S)NCc1ccccc1)(C3)C2" ; what IC50 value has been reported? 58
